FYI, the data here is from patent US20230023559A1.

# pIC50 annotations
Target: Kv1.3 potassium channel (Homo sapiens, UniProt P22001)
Sequence (P22001 whole entry): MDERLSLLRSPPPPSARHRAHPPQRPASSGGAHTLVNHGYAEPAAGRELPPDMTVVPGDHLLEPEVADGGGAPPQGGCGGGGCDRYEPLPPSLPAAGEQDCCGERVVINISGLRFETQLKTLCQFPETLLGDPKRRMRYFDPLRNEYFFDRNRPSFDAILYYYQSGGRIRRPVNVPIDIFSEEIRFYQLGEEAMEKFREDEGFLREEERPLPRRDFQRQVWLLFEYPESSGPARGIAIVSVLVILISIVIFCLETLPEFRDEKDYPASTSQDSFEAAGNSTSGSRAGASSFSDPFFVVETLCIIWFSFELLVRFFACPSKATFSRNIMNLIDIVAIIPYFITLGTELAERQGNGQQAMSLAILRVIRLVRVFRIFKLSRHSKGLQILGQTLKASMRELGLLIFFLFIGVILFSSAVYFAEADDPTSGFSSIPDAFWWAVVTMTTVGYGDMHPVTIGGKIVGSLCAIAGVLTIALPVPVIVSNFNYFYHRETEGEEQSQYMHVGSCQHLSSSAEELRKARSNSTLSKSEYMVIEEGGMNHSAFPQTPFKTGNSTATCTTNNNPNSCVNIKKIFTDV
Protocol notes: Kv1.3 potassium channel blocker activity, automated whole-cell patch clamp (Patchliner)
Experimental context: CHO-K1 cells stably expressing Kv1.3; whole cell current inhibition; read-out: Kv1.3_IC50
pIC50: −log10 of the molar value.

# get_value(readout='pIC50', item= N[C@@H](c1cc(Cl)c(Cl)cc1O)C1CCN(C(=O)c2c[nH]c(=O)[nH]2)CC1 )
> 6.30

Item: Nc1nnc(N2CCC([C@@H](N)c3cc(Cl)c(Cl)cc3O)CC2)s1
> 5.00

Item: N[C@@H](c1cc(Cl)c(Cl)cc1O)C1CCN(C(=O)c2cnoc2)CC1
> 6.30

Item: CC(C)C[C@@H](N)C(=O)N1CCC([C@@H](N)c2cc(Cl)c(Cl)cc2O)CC1
> 6.30
